Consider the following pKi values measured on Prostacyclin receptor (Homo sapiens, UniProt P43119).
Sequence (P43119 whole entry): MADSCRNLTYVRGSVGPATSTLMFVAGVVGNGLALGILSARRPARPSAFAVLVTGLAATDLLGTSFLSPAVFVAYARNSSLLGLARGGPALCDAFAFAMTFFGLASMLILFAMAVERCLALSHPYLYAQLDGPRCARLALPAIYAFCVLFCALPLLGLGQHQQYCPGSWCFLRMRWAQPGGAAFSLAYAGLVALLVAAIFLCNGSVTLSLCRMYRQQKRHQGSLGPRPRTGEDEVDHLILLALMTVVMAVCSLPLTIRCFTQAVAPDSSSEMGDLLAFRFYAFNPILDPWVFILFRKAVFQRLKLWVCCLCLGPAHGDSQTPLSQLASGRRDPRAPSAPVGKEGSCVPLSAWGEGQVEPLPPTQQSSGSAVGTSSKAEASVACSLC
pKi: −log10 of the molar value.
attribute.measured: pKi

{"molecule": "CCCCC[C@H](O)/C=C/C1[C@H](O)CC(=O)[C@H]1CCCCCCC(=O)O (stereo not given in full) [8-ISO PROSTAGLANDIN E1]", "value.observed": 6.13}

a. CCCCC[C@H](O)/C=C/[C@@H]1[C@H]2C/C(=C\CCCC(=O)O)C[C@H]2C[C@H]1O
b. O=C(O)CCC/C=C\C[C@H]1C(=O)C[C@@H](O)[C@@H]1/C=C/[C@@H](O)CCc1ccccc1 [17-PHENYL TRINOR PROSTAGLANDIN E2]
I'm curious whether a or b has the smaller pKi number. Which is it? Answer with the label corresponding to your selection.
b

These entries and their values trace back to BindingDB's records for doi:10.1111/j.1476-5381.1981.tb10994.x.
